target: human CB1 receptor (Homo sapiens, UniProt P21554); construct: host or cells: CHO-K1; assay: CB1 radioligand competitive binding assay ([3H]CP 55,940 displacement)
Sequence (P21554 whole entry): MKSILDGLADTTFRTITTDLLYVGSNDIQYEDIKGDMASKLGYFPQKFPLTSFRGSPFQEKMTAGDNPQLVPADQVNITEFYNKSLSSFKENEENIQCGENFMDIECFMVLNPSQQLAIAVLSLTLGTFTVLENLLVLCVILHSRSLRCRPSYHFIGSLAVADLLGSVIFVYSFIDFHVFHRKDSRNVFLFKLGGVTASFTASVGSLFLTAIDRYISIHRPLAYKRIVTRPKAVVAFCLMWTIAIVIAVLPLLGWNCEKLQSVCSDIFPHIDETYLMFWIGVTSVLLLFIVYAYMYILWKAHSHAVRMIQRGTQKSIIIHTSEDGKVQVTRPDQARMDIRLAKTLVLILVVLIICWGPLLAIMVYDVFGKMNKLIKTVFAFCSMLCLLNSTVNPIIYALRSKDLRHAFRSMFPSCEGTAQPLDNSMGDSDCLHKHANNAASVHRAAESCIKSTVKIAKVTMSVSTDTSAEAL
experimentalReadout: IC50

Exam item: Indicate the recorded IC50 value for this compound: CCCCCc1cc(O)c(C/C=C(\C)CCC=C(C)C)c(O)c1S(=O)(=O)NC
Marked response: > 1000 nM

###

Biological target: human CB2 receptor (Homo sapiens, UniProt P34972)
Construct: host or cells: CHO-K1
Sequence (P34972 whole entry): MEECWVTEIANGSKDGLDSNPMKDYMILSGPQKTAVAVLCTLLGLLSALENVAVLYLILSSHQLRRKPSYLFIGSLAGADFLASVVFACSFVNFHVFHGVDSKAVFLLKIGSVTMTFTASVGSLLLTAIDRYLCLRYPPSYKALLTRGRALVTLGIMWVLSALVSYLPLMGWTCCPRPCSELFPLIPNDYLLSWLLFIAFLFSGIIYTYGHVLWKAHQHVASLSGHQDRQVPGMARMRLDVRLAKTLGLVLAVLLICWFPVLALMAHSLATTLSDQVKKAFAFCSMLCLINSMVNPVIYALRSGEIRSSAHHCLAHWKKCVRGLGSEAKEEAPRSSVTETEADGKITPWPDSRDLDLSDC
Test: CB2 radioligand competitive binding assay ([3H]CP 55,940 displacement)
Details: 0.6 nM [3H]CP55,940, membranes from CHO-K1 cells expressing human CB2 receptor, dose-response; read-out: CB2 IC50
Procedure: Compounds of the present disclosure were tested for CB1 receptor binding affinity and for CB2 receptor binding affinity. As used herein, “binding affinity” is represented by the IC50 value, which was experimentally determined as described herein. The lower the IC50 value the higher the binding affinity. A compound of the present disclosure may be said to have “binding selectivity” if it has a higher binding affinity for one receptor compared to the other. […]
pIC50: −log10 of the molar value.
Recorded pIC50 by entry

Exam item: Indicate the recorded pIC50 value for this compound: CCCCCc1cc(O)c(C/C=C(\C)CCC=C(C)C)c(O)c1C(=O)NS(=O)(=O)c1ccccc1
Marked response: < 6.00

Exam item: Indicate the recorded pIC50 value for this compound: CCCCCc1cc(O)c(C/C=C(\C)CCC=C(C)C)c(O)c1S(C)(=O)=O
Marked response: 6.00 to 6.30

Exam item: Indicate the recorded pIC50 value for this compound: CCCCCc1cc(O)c(C/C=C(\C)CCC=C(C)C)c(O)c1S(=O)(=O)N1CCOCC1
Marked response: > 7.00

Exam item: Indicate the recorded pIC50 value for this compound: CCCCCc1cc(O)c(C/C=C(\C)CCC=C(C)C)c(O)c1C(=O)NS(=O)(=O)c1cccnc1
Marked response: < 6.00

Exam item: Indicate the recorded pIC50 value for this compound: CCCCCc1cc(O)c(C/C=C(\C)CCC=C(C)C)c(O)c1S(=O)(=O)NC(C)C
Marked response: 6.31 to 7.00

Exam item: Indicate the recorded pIC50 value for this compound: CCCCCc1cc(O)c(C/C=C(\C)CCC=C(C)C)c(O)c1S(=O)(=O)Nc1ccccc1
Marked response: > 7.00

Exam item: Indicate the recorded pIC50 value for this compound: C=CCNS(=O)(=O)c1c(CCCCC)cc(O)c(C/C=C(\C)CCC=C(C)C)c1O
Marked response: > 7.00

Exam item: Indicate the recorded pIC50 value for this compound: CCCCCc1cc(O)c(C/C=C(\C)CCC=C(C)C)c(O)c1S(=O)(=O)NC1CCC1
Marked response: > 7.00

###

Recorded Selectivity CB2 by entry
target: human CB2 receptor (Homo sapiens, UniProt P34972); construct: host or cells: CHO-K1; test: CB2 radioligand competitive binding assay ([3H]CP 55,940 displacement); conditions: fold difference in selectivity between CB1 and CB2 binding, in the column of the receptor with the higher binding affinity
# value in fold; strip the unit string

> print(dat)
                                   compound                           systemundertest  experimentalvalue
1  CCCCCCNS(=O)(=O)c1c(CCCCC)cc(O)c(C/C=C(\C)CCC=C(C)C)c1O [Compound 64]  human CB2 receptor (Homo sapiens, UniProt P34972)               7.89
2  CCCCCc1cc(O)c(C/C=C(\C)CCC=C(C)C)c(O)c1S(=O)(=O)N1CCOCC1 [Compound 28]  human CB2 receptor (Homo sapiens, UniProt P34972)             266.67
3  CCCCCc1cc(O)c(C/C=C(\C)CCC=C(C)C)c(O)c1C(=O)NS(=O)(=O)c1cccnc1 [Compound 66]  human CB2 receptor (Homo sapiens, UniProt P34972)               1.88

Now turn to the next compound.
Exam item: Indicate the recorded Selectivity CB2 value for this compound: CCCCCc1cc(O)c(C/C=C(\C)CCC=C(C)C)c(O)c1S(=O)(=O)Oc1ccccc1 [Compound 67]
Marked response: 20.83

These measurements were taken from patent US12084407B2.
